Tested on: SYO-1 tumor spheroids, viability % test/control
experiment_notes: Anticancer human tumor SYO-1 cell line growth inhibition;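 further: spheroids exposed to agents for 7 days before viability read; 100% = DMSO vehicle control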
condition_description: second compound 0.003 µM; first compound 0.03 µM; hits give low values; spheroids with HUVEC and MSC
property_measured: viability, T/C (%)
Write the answer as a number in %, unit excluded.

[Q] // lookup viability, T/C for CNCc1ccc(-c2cc(-c3nc(-c4ccc(S(=O)(=O)C(C)C)cc4)cnc3N)on2)cc1 + COc1cc2c(cc1O)CCNC21CSC2c3c(OC(C)=O)c(C)c4c(c3C(COC1=O)N1C(O)C3Cc5cc(C)c(OC)c(O)c5C(C21)N3C)OCO4
[A] 0.12

[Q] Fill in: viability, T/C of Cn1ncnc1[C@H]1c2n[nH]c(=O)c3cc(F)cc(c23)N[C@@H]1c1ccc(F)cc1 + COc1cc2c(cc1O)CCNC21CSC2c3c(OC(C)=O)c(C)c4c(c3C(COC1=O)N1C(O)C3Cc5cc(C)c(OC)c(O)c5C(C21)N3C)OCO4 is ___
[A] 0.14

[Q] Reported viability, T/C, molecule Cn1ncnc1[C@H]1c2n[nH]c(=O)c3cc(F)cc(c23)N[C@@H]1c1ccc(F)cc1 + CC[C@@]1(O)C(=O)OCc2c1cc1n(c2=O)Cc2cc3c(CN(C)C)c(O)ccc3nc2-1 : ____
[A] 2.24

[Q] // query viability, T/C value for entry CNCc1ccc(-c2cc(-c3nc(-c4ccc(S(=O)(=O)C(C)C)cc4)cnc3N)on2)cc1 + CC[C@@]1(O)C(=O)OCc2c1cc1n(c2=O)Cc2cc3c(CN(C)C)c(O)ccc3nc2-1
[A] 42.5

[Q] Entry Cc1sc2c(c1C)C(c1ccc(Cl)cc1)=NC(CC(=O)Nc1ccc(O)cc1)c1nnc(C)n1-2 (stereo unspecified) + CC[C@@]1(O)C(=O)OCc2c1cc1n(c2=O)Cc2cc3c(CN(C)C)c(O)ccc3nc2-1 has what viability, T/C?
[A] 70.3

[Q] Item under review: Cc1sc2c(c1C)C(c1ccc(Cl)cc1)=NC(CC(=O)Nc1ccc(O)cc1)c1nnc(C)n1-2 (stereo unspecified) + COc1cc2c(cc1O)CCNC21CSC2c3c(OC(C)=O)c(C)c4c(c3C(COC1=O)N1C(O)C3Cc5cc(C)c(OC)c(O)c5C(C21)N3C)OCO4 . Reported viability, T/C?
[A] 0.1
